Structures can show the parent of a compound that is named as a salt.
Parameter: melting point. Scope: all listed entries.

The following molecules have reported results that may help.
molecule: CCOC(=O)Nc1sc2c(Cl)c(O)c(Cl)cc2c1C(N)=O
obsValue: 235 to 240 °C
--
molecule: O=C(Nc1sc2c(c1S(=O)(=O)O)CCCC2)C1CC1
obsValue: 225 to 230 °C (dec.)
--
molecule: NS(=O)(=O)c1c(NC(=O)C2CC2)sc2c1CCCC2
obsValue: 235 to 238 °C (dec.)
--
molecule: NC(=O)c1c(NC(=O)C2CC2)sc2c(Cl)c(OCCO)c(Cl)cc12
obsValue: 250 to 254 °C

Next molecule, melting point to be filled in.
Exam item: Consider the molecule shown here: NC(=O)c1c(NC(=O)Nc2ccccc2)sc2c1CCC1(C2)OCCO1 (as salt: HCl) What is its recorded melting point?
Marked response: 212 to 213 °C

###

testedTarget: CDK2/CycA (Homo sapiens)
methodDescription: General kinase assay: CDK2/CycA
Assay type: biochemical
appliedConditions: concentration 10 μM; read-out: Inhibitory effect on Target CDK2/CycA
Parameter: inhibition at 10 µM. Scope: all listed entries.

compound: NC(=O)c1c(NC(=O)Nc2ccc(F)cc2)sc2c1CCSC2 [Compound C45]
obsValue: > 50%

Exam item: Consider the compound shown here: NC(=O)c1c(NC(=O)C2CC2)sc2c1CCC(Br)(Br)C2=O [Compound D67] What is its recorded inhibition at 10 µM?
Marked response: > 50%

Exam item: Do the same for NC(=O)c1c(NC(=O)Nc2ccc(F)cc2)sc2c1CCC(O)C2 (stereo not shown) [Compound D142] please
Marked response: > 50%

Exam item: Do the same for NC(=O)c1c(NC(=O)Nc2ccccc2)sc2cc(O)ccc12 [Compound A12] please
Marked response: > 50%

Exam item: Do the same for CC1CC1C(=O)Nc1sc2c(Cl)c(O)ccc2c1C(N)=O (stereo not shown) [Compound A37] please
Marked response: > 50%

Exam item: Do the same for NN=C1CCc2c(sc(NC(=O)C3CC3)c2C(N)=O)C1 [Compound D115] please
Marked response: > 50%

Exam item: Do the same for NC(=O)c1c(NC(=O)Nc2ccc(F)cc2)sc2c1CCC(=O)C2 [Compound D121] please
Marked response: > 50%

###

testedTarget: GSK-3beta HIS (Homo sapiens)
Construct: His
Sequence (P49841 whole entry): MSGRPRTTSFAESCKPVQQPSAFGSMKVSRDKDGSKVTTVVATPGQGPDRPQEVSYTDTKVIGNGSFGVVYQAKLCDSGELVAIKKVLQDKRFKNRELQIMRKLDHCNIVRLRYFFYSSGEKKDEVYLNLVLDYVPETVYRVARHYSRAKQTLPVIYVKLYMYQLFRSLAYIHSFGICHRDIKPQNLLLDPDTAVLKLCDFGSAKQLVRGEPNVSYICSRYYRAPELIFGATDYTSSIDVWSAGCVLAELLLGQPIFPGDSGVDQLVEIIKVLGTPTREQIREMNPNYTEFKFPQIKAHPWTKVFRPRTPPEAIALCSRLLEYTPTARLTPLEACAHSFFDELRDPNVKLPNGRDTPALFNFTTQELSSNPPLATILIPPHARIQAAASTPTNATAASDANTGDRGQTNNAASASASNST
methodDescription: General kinase assay: GSK-3beta
Assay type: biochemical
appliedConditions: concentration 10 μM; read-out: Inhibitory effect on Target GSK-3beta HIS
readoutName: inhibition at 10 µM

The following molecules have reported results that may help.
molecule: NN=C1CCc2c(sc(NC(=O)C3CC3)c2C(N)=O)C1
inhibition at 10 µM: > 50%
//
molecule: NC(=O)c1c(NC(=O)Nc2ccccc2)sc2cc(O)ccc12
inhibition at 10 µM: > 50%

Exam item: Hello, I am looking for reported inhibition at 10 µM with GSK-3beta HIS (Homo sapiens) for CC1CC1C(=O)Nc1sc2c(Cl)c(O)ccc2c1C(N)=O (stereo not drawn) . Could you help?
Marked response: > 50%

###

testedTarget: mycobacterial protein kinase G (PknG) (Mycobacterium tuberculosis)
Construct: GST; made in house; host or cells: E. coli BL21
methodDescription: biochemical
appliedConditions: read-out: Inhibition of PknG (IC50, [μM])
Parameter: IC50. Scope: all listed entries.

The following molecules have reported results that may help.
molecule: NC(=O)c1c(NC(=O)C2CCC2)sc2c1CCCC2 [Compound D9]
obsValue: 1.1 to 10 µM
//
molecule: NC(=O)c1c(NC(=O)C2CC2)sc2c1CCC(Br)(Br)C2=O [Compound D67]
obsValue: 0.1 to 1 µM
//
molecule: NC(=O)c1c(NC(=O)C2CC2)sc2cc(OCCO)ccc12 [Compound A20]
obsValue: 0.1 to 1 µM
//
molecule: CCN(CC)C(=O)c1cc2c(C(N)=O)c(NC(=O)C3CC3)sc2cc1O [Compound A17]
obsValue: 1.1 to 10 µM
//
molecule: NC(=O)c1c(NC(=O)Nc2ccc(F)cc2)sc2c1CCSC2 [Compound C45]
obsValue: 0.1 to 1 µM
//
molecule: NC(=O)c1c(NC(=O)C2CCCC2)sc2c1CCOC2 [Compound B10]
obsValue: 1.1 to 10 µM

Exam item: Consider the molecule shown here: NC(=O)c1c(NC(=O)C2CC2)sc2c1CCC/C2=N\OCc1ccccc1 [Compound D72] What is its recorded IC50?
Marked response: < 0.1 µM

Exam item: Do the same for CC(C)C(=O)Nc1sc2c(c1C(N)=O)CCOC2 [Compound B2] please
Marked response: > 10 µM

Exam item: Do the same for CC(C)=CC(=O)Nc1sc2c(c1C(N)=O)CCOC2 [Compound B17] please
Marked response: 1.1 to 10 µM

Exam item: Do the same for NC(=O)c1c(NC(=O)Nc2ccc3c(c2)OCO3)sc2c1CCC(O)C2 (stereo not drawn) [Compound D212] please
Marked response: 0.1 to 1 µM

Exam item: Do the same for CC(C)(C)C(=O)Nc1sc2c(c1C(N)=O)CCOC2 [Compound B18] please
Marked response: > 10 µM

###

Parameter: IC50. Scope: all listed entries.
testedTarget: mycobacterial protein kinase G (PknG) (Mycobacterium tuberculosis)
Construct: GST; made in house; host or cells: E. coli BL21
methodDescription: biochemical
appliedConditions: read-out: Inhibition of PknG (IC50, [μM])

Exam item: Consider the compound shown here: NC(=O)c1c(NC(=O)NCCc2cccs2)sc2c1CCOC2 What is its recorded IC50?
Marked response: 0.1 to 1 µM

Exam item: Do the same for NC(=O)c1c(NC(=O)Nc2ccc(I)cc2)sc2c1CCC1(C2)OCCO1 please
Marked response: 0.1 to 1 µM

Exam item: Do the same for CCC(C)C(=O)Nc1sc2c(c1C(N)=O)CCOC2 (stereo not shown) please
Marked response: > 10 µM

Exam item: Do the same for NC(=O)c1c(NC(=O)C2CCC2)sc2c1CCOC2 please
Marked response: 1.1 to 10 µM

###

testedTarget: mycobacterial protein kinase G (PknG) (Mycobacterium tuberculosis)
Construct: GST; made in house; host or cells: E. coli BL21
methodDescription: biochemical
appliedConditions: read-out: Inhibition of PknG (IC50, [μM])
readoutName: IC50

The following compounds have reported results that may help.
compound: COc1ccc(NC(=O)Nc2sc3c(c2C(N)=O)CCC(=O)C3)cc1 [Compound D106]
readoutName: IC50
obsValue: 0.1 to 1 µM

compound: NC(=O)c1c(NC(=O)C2CC2)sc2c1CCC2 [Compound D196]
readoutName: IC50
obsValue: < 0.1 µM

compound: NC(=O)c1c(NC(=O)C2CC2)sc2c1CC[S+]([O-])C2 (stereo not drawn) [Compound C2]
readoutName: IC50
obsValue: > 10 µM

Exam item: Consider the compound shown here: CC1CCc2sc(NC(=O)C3CC3)c(C(N)=O)c2C1 (stereo not drawn) [Compound D37] What is its recorded IC50?
Marked response: < 0.1 µM

Exam item: Do the same for CC1OCc2sc(NC(=O)C3CC3)c(C(N)=O)c21 (stereo not drawn) [Compound D96] please
Marked response: 1.1 to 10 µM

###

testedTarget: mycobacterial protein kinase G (PknG) (Mycobacterium tuberculosis, UniProt P9WI73)
Construct: GST; made in house; host or cells: E. coli BL21
Sequence (P9WI73 whole entry): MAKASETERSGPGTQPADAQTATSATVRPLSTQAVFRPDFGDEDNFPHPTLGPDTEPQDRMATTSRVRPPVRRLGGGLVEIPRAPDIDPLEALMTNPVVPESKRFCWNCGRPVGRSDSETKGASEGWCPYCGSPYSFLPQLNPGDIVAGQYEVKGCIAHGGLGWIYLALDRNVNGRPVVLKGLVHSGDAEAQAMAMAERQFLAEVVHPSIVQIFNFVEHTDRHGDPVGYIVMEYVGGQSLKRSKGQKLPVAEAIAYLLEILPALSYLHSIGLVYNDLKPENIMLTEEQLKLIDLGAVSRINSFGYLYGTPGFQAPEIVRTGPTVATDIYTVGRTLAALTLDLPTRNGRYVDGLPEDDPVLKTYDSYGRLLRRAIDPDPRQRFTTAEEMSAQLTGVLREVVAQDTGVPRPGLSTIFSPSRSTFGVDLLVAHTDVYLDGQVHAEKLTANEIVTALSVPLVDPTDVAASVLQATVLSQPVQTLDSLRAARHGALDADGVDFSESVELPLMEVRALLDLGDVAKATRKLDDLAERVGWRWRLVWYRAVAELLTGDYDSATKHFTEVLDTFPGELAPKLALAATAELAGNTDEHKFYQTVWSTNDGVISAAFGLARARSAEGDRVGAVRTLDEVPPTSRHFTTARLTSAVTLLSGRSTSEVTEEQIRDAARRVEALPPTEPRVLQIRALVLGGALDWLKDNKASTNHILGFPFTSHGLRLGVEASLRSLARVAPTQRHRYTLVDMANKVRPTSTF
methodDescription: biochemical
appliedConditions: read-out: Inhibition of PknG (IC50, [μM])
readoutName: IC50

The following molecules have reported results that may help.
chemicalStructure: NC(=O)c1c(NC(=O)C2CC2)sc2c1CCOC2
IC50: 0.1 to 1 µM
--
chemicalStructure: NC(=O)c1c(NC(=O)C2CC2)sc2cc(OCC(=O)NCCO)ccc12
IC50: 0.1 to 1 µM
--
chemicalStructure: NN=C1CCc2c(sc(NC(=O)C3CC3)c2C(N)=O)C1
IC50: 0.1 to 1 µM
--
chemicalStructure: NC(=O)c1c(NC(=O)C2CC2)sc2c(Br)c(O)c(Br)cc12
IC50: < 0.1 µM
--
chemicalStructure: CCOC(=O)N1CCC(NC(=O)Nc2sc3c(c2C(N)=O)CCOC3)CC1
IC50: 1.1 to 10 µM

Exam item: Hello, I am looking for reported IC50 with mycobacterial protein kinase G (PknG) (Mycobacterium tuberculosis, UniProt P9WI73) for CO/N=C1/CCCc2c1sc(NC(=O)C1CC1)c2C(N)=O . Could you help?
Marked response: < 0.1 µM

Exam item: Do the same for CC=CC(=O)Nc1sc2c(c1C(N)=O)CCOC2 please
Marked response: 1.1 to 10 µM

Exam item: Do the same for C=CCNC(=S)Nc1sc2c(c1C(N)=O)CCCC2 please
Marked response: 1.1 to 10 µM

Exam item: Do the same for NC(=O)c1c(NC(=O)Nc2ccc(Oc3ccccc3)cc2)sc2c1CCSC2 please
Marked response: 1.1 to 10 µM

Exam item: Do the same for Cc1ccccc1CNC(=O)Nc1sc2c(c1C(N)=O)CCSC2 please
Marked response: > 10 µM
